Collected growth values appear next to each entry.
System: IGROV1 ovarian
Test: NCI-60 one-dose screen, 48 h (100 = growth as untreated, 0 = no growth, -100 = all killed)
Conditions: 10 µM unless noted
Protocol: Growth inhibition of the IGROV1 human tumor cell line is measured as a screen for anti-cancer activity. Cells are grown in 96 well plates and exposed to the test compound for 48 hours. Compounds are tested at a single concentration, which is 10^-5 M for most compounds. The reported endpoint is percent growth (GI% or GIPRCNT), where numbers from 0 - 100% represent growth inhibition, and numbers from -100% - 0 represent cell death. For example, a value of 40 represents 60% growth inhibition. […]
This is part of a sample that, as a whole, favours compounds with a hit. Of some 83,000 tested, about 20% had one in any assay.
Quick reminder: number only, in %, skip the unit.

# count of solved cases: 3
C#CCN(C)CCCOc1ccc(NC(=O)CCCCCCCCC(=O)NO)cc1Cl; 71.5
CCC1=Cc2c(OC)cccc2OC12C=Cc1c(OC)cccc1O2 (centres undefined); 29.8
Cn1cc(-c2cc3ncnc(Nc4ccc(NC(=O)Nc5cc(C(C)(C)C)on5)cc4)c3s2)cn1; 19.8

If you can, please state the reported growth value of NCCNC(=O)c1cccc(COc2ccccc2NC(=O)c2cc(Cl)c(Cl)[nH]2)c1 . 94.6

What measured growth goes with Cn1c(SCC(=O)c2ccco2)nc2ccccc2c1=O ? 86.1

Entry O=C(N/N=C/c1cc2ccccc2nc1Cl)c1cc(-c2nc3ccccc3[nH]2)nc2ccccc12 : reported growth = ? 87.5

Can you look up the measured growth of O=c1c2cc(-c3ccc(F)cc3F)ccc2n(Nc2ccccc2)c(=O)n1-c1cccc(C(F)(F)F)c1 for me? 17.4

Fill in the blank: the reported growth of O=C1[C@@H]2Cc3c([nH]c4ccccc34)[C@H](c3ccc(Cl)cc3)N2C(=O)CN1C1CCN(Cc2ccccc2)CC1 is ____. 43.3

Value lookup for growth; key = CCC(=C(c1ccc(OCCN2CCCCCC2)cc1)c1ccc(OCCN2CCCCCC2)cc1)c1ccc(Cl)cc1 2.76

====

system: A549/ATCC NSCLC; assay: NCI-60 one-dose screen, 48 h (100 = growth as untreated, 0 = no growth, -100 = all killed); settings: 10 µM unless noted
The panel holds about 83,000 compounds, 20% with a hit somewhere; the sample as a whole holds those more often.
measure: growth (%)
Write the number in % without appending the unit.

CC1(C)C=Cc2cc(/C(N)=N/C(N)=N/c3nc4ccccc4s3)ccc2O1; 67

Quick check: growth of C#CCN(C)CCCOc1ccc(NCc2ccc(/C=C/C(=O)NO)cc2)cc1Cl ? -3.43

Look up growth for this compound: O=C1[C@H]2Cc3c([nH]c4ccccc34)[C@H](c3ccc(Cl)cc3)N2C(=O)CN1C1CCN(CC2CCCCC2)CC1 64.4

Form field: reported growth of CCN(CC)c1ccc(/C=N/NC(=O)c2ccc(S(N)(=O)=O)cc2)cc1 26.1

Item under review: CC(Nc1c(C#N)cnc2ccc(-c3cncc(O)c3)cc12)c1ccccc1 (stereo not given) . Reported growth? 15.9

Look at this compound and give its reported growth. CN(C)S(=O)(=O)c1ccc(-c2nc(C(Cl)Cl)nc3cc(-c4ccc(F)cc4)nn23)cc1 7.5

Reported growth, compound O=C1Nc2ccccc2/C1=N\c1nnc(-c2ccccc2)o1 : ____ 103

Can you look up the measured growth of Cc1ccsc1[C@H]1c2[nH]c3ccccc3c2C[C@H]2C(=O)N(CCCCCCC(=O)NO)CC(=O)N12 for me? 99.3

Fill blank: measured growth of the compound COc1ccc(/C=N/NC(=O)c2c(N)nn(C)c2Nc2ccccc2)cc1Oc1ccccc1 is ____. 89.1

Quick one: growth for Clc1ccc2[nH]cc(-c3nn4cc(-c5ccncc5)nc4s3)c2c1 ? 68.6

Please look up its growth: COC(=O)c1cccc(NC2=C(Cl)C(=O)c3nc(C)ccc3C2=O)c1 102

Need growth, item CCOC(=O)C1=C(C)NC(C)=C(C(=O)OC(C)C)C1c1cccc(C#N)c1 (stereo not given) 100

If you can, please state the reported growth value of O=C1Nc2ccccc2/C1=C/c1ccc(OCC(=O)c2ccccc2)cc1 . 99.5

Which growth reading was recorded for the compound CCN(CC)CCOc1ccc(C(=C(C)Cc2ccc(OC)cc2)c2ccc(OCCN(CC)CC)cc2)cc1 ? 52.6

growth for O=C(N/N=C/c1cc2ccccc2nc1Cl)c1cc(-c2nc3ccccc3[nH]2)nc2ccccc12 ? 95.1

For the compound shown here, C#CCOc1ccccc1/C=N/Nc1nc(-c2ccc(Cl)cc2)cs1 , give the reported growth. 101

Sample Cc1ccc(CSC2=C(Cl)CN(c3ccc(Cl)cc3)C2=O)cc1 — what was its growth? 104

Reported growth, compound Cc1cc2nc(C(Cl)Cl)nc(-c3ccc(S(=O)(=O)N(C)C)cc3)n2n1 : ____ 37

Report growth for Cn1cc(-c2nc(N)nnc2-c2c[nH]c3ccc(Br)cc23)c2cc(F)ccc21 please. 103

Data request, read-out growth, for CCOC(=O)c1ccc(NC2=C(Cl)C(=O)c3nc(C)ccc3C2=O)cc1 94.3

====

tested on: K-562 leukemia; assay: NCI-60 one-dose screen, 48 h (100 = growth as untreated, 0 = no growth, -100 = all killed); details: 10 µM unless noted
About 83,000 compounds went through this panel and 20% of them were active in at least one assay; those are over-represented in the sample as a whole. Activity calls are given as the source filed them. How the source made its calls: active means growth percent below 10; inactive means the rest.
measure: growth

Example entries and their recorded answers appear below.
N#CC1=C2NCCCNc3oc(nc3C#N)Cc3ccccc3CC(=N1)O2; 12% (inactive)
COc1cc(C(=O)c2cc(C(C)=O)c3c(C)cccn23)cc(OC)c1OC; 94.6% (inactive)
O=C1CSC(c2cn(-c3ccccc3)nc2-c2ccc(Cl)cc2)N1c1ccccc1 (centres undefined); 109% (inactive)
C/C(=N\NC(=O)/C=C/CC(=O)O)c1nnn(-c2ccc([N+](=O)[O-])cc2)c1C; 103% (inactive)
CC(=C(c1ccc(OCCN2CCCC2)cc1)c1ccc(OCCN2CCCC2)cc1)c1ccc(Cl)cc1; -43.6% (active)
CSc1ccc(C(=NNS(=O)(=O)c2ccc(C)cc2)c2ccc(Cl)cc2)cc1; 94.6% (inactive)
CCCc1cc2cc(-n3nc(CC)c4c3CC(C)(C)CC4=O)cc(NC3CCC(O)CC3)c2c(=O)[nH]1 (centres undefined); 10.9% (inactive)
C[C@@H]1OCC2(CCN(c3cnc(C(=O)Nc4cc(F)cc5cccnc45)cn3)CC2)[C@@H]1N; 8.84% (active)

Give its growth value. Item: COc1ccc(/C=N/NC(=O)CSc2nc(-c3cnccn3)cc(-c3cccs3)c2C#N)cc1 79.5% (inactive)

====

test system: TK-10 renal; experiment: NCI-60 one-dose screen, 48 h (100 = growth as untreated, 0 = no growth, -100 = all killed); conditions: 10 µM unless noted
Compounds without any hit were thinned out: in the full panel of roughly 83,000, 20% have a hit. Calls of active or inactive are those of the source. How the source made its calls: active means growth percent below 10; inactive means the rest.
measure: growth

Please review the following examples before continuing.
CNCCN(C)c1ccc(Nc2cc(NC3CC3)n3ncc(C#N)c3n2)cc1NC(C)=O; -29.9% (active)
C#CCN(C)CCCOc1ccc(NC(=O)CCCCCCCCC(=O)NO)cc1Cl; 63.1% (inactive)
Fc1ccc(-c2cn3c(-c4c[nH]c5ccc(Br)cc45)csc3n2)cc1; 80.3% (inactive)
Cc1[nH]c(C(=O)Nc2ccccc2OCc2cccc(C(=O)NC3CCNC3)c2)c(Cl)c1Cl (stereo not given); 101% (inactive)

Entry Cc1ccc2c(n1)C(=O)C(Cl)=C(Nc1ccc(C)c(C)c1)C2=O : reported growth = ? 140% (inactive)

What measured growth goes with O=S1SC(c2ccccc2)=NN1c1cc(F)cc(F)c1 (stereo not given) ? 85.8% (inactive)

What measured growth goes with O=S(=O)(Oc1ccc(-c2cn3ccoc3n2)cc1)c1cccc(C(F)(F)F)c1 ? 85.4% (inactive)

# get_value(readout='growth', item= O=C(/C=C/c1ccc(F)cc1)Nc1cccc2cccnc12 ) 147% (inactive)

Would you mind telling me what growth value was observed for O=C(CSc1nc2ccccc2c(=O)n1-c1ccccc1)Nc1ccc(S(=O)(=O)Nc2nccs2)cc1 ? 112% (inactive)

growth for Cc1[nH]c(C(=O)Nc2ccc(C(N)=O)cc2N2CCOC(C)C2)c(Cl)c1Cl (stereo not given) ? 100% (inactive)

====

system: SF-268 CNS; assay: NCI-60 one-dose screen, 48 h (100 = growth as untreated, 0 = no growth, -100 = all killed); conditions: 10 µM unless noted
This is part of a sample that, as a whole, favours compounds with a hit. Of some 83,000 tested, about 20% had one in any assay.
This listing pairs compounds with measured growth.
// return numeric value only (unit: %, not printed)

CNC(=O)c1cc(-c2ccc(NC(=S)Nc3cccc(C(F)(F)F)c3)cc2)nc2cccnc12; 106
CCc1cc(OC(=O)N2CCN(CCC(C)(COC(C)(C)C)COC(C)(C)C)CC2)ccc1Nc1cc(-c2ccc(-n3cccn3)cc2)[nH]n1; 73.8
CC(=O)c1c([Si](C)(C)C)c2cc(C#N)ccn2c1C(=O)c1ccc(Br)cc1; 79.1
CN1CCN(c2ccc(Nc3nc(NCCCNS(=O)(=O)c4ccc(F)cc4)c4sccc4n3)cc2)CC1; 60.3
Cc1ccc(C(=O)Nc2ccc(CNCCN3CCOCC3)c(C(F)(F)F)c2)cc1C#Cc1cnc2cccnn12; 15.6
COc1ccc(C2c3[nH]c4ccc(Cl)cc4c3CCN2c2oc(CO)nc2C#N)cc1 (centres undefined); 53.6
Clc1ccc2[nH]cc(-c3nn4cc(-c5ccncc5)nc4s3)c2c1; 39.1
Cc1ccc(CSC2=C(Cl)CN(c3ccc(Cl)cc3)C2=O)cc1; 108

Attention now turns to another entry.
Entry O=c1nc(Nc2ccc([N+](=O)[O-])cc2O)sc2ccccc12 : reported growth = ? 59.4

The values you see were collected from PubChem BioAssay (NCI).
